- Test Description: Volume of distribution at steady state in mouse at 1 mg/kg, iv
- Type: ADME, organism-based
- Applied Conditions: in vivo, read-out: Vdss
Observable: Vd (L/kg)
Answers are plain numbers, in L/kg.

Req: Param item = COCCNc1cc(NC(=O)N2CCCc3cc(CN4CCN(C)CC4=O)c(C=O)nc32)ncc1C#N ; retrieve measured Vd.
Resp: 2.3

---

- Test Description: Half life in human at 20 mg/kg, IM
- Assay type: ADME, organism-based
- Applied Conditions: in vivo
Observable: half-life (h)
One number for each entry, in h.

Req: Param item = [H]/N=C(/N)N[C@H]1[C@H](O)[C@@H](O)[C@H](O[C@@H]2O[C@@H](C)[C@](O)(C=O)[C@H]2O[C@@H]2O[C@@H](CO)[C@H](O)[C@@H](O)[C@@H]2NC)[C@@H](N/C(N)=N\[H])[C@@H]1O [STREPTOMYCIN] ; retrieve measured half-life.
Resp: 5.3

---

- Test Description: Cmax in human at 0.25%, OU administered once daily for 7 days
- Assay type: ADME
- Design: dose 0.25 %, time 7 day
- Applied Conditions: topical or ocular
Observable: Cmax (nM)
One number for each entry, in nM.

Req: Param item = CN1CCC(=C2c3ccccc3CCn3c(C=O)cnc32)CC1 ; retrieve measured Cmax.
Resp: 0.15

---

- Test Description: Tmax in human plasma at 37 mg/kg, po by HPLC method
- Assay type: ADME, organism-based
Observable: Tmax (h)
Answers are plain numbers, in h.

Req: Param item = O=Cc1c(O)cccc1OCc1ccc(C(=O)O)cc1 [TUCARESOL] ; retrieve measured Tmax.
Resp: 7.5

---

- Test Description: Half life in human erythrocytes at 37 mg/kg, po by HPLC method
- Format: ADME, organism-based, Erythrocyte
Observable: half-life

Req: Param item = O=Cc1c(O)cccc1OCc1ccc(C(=O)O)cc1 ; retrieve measured half-life.
Resp: 120 h

---

- Test Description: Renal clearance in human at 20 mg/kg, IM
- Format: ADME, organism-based
- Applied Conditions: in vivo
Observable: CL renal (mL/min)
Answers are plain numbers, in mL/min.

Req: Param item = [H]/N=C(/N)N[C@H]1[C@H](O)[C@@H](O)[C@H](O[C@@H]2O[C@@H](C)[C@](O)(C=O)[C@H]2O[C@@H]2O[C@@H](CO)[C@H](O)[C@@H](O)[C@@H]2NC)[C@@H](N/C(N)=N\[H])[C@@H]1O [STREPTOMYCIN] ; retrieve measured CL renal.
Resp: 30

---

- Test Description: Half life in mouse at 1 mg/kg, iv
- Assay type: ADME, organism-based
- Applied Conditions: in vivo
Observable: half-life (h)
Answers are plain numbers, in h.

Req: Param item = COCCNc1cc(NC(=O)N2CCCc3cc(CN4CCN(C)CC4=O)c(C=O)nc32)ncc1C#N [FGF401] ; retrieve measured half-life.
Resp: 1.4

---

- Test Description: Tmax in human at 20 mg/kg, IM
- Assay type: ADME, organism-based
- Applied Conditions: in vivo
Observable: Tmax
Put down the number, then write its unit next to it.

Req: Param item = [H]/N=C(/N)N[C@H]1[C@H](O)[C@@H](O)[C@H](O[C@@H]2O[C@@H](C)[C@](O)(C=O)[C@H]2O[C@@H]2O[C@@H](CO)[C@H](O)[C@@H](O)[C@@H]2NC)[C@@H](N/C(N)=N\[H])[C@@H]1O ; retrieve measured Tmax.
Resp: 30 min
